experiment description: Plasma pharmacokinetics of docetaxel
Type: in vivo, human
conditions: human, plasma, intravenous, 75 mg/m^2

compound	unit string	half-life
CC(=O)O[C@@]12CO[C@@H]1C[C@H](O)[C@@]1(C)C(=O)[C@H](O)C3=C(C)[C@@H](OC(=O)[C@H](O)[C@@H](NC(=O)OC(C)(C)C)c4ccccc4)C[C@@](O)([C@@H](OC(=O)c4ccccc4)[C@H]21)C3(C)C [docetaxel, Docetaxel]	h	15.7

---

experiment description: Plasma pharmacokinetics of docetaxel
Assay type: in vivo, human
conditions: human, plasma, intravenous, 75 mg/m^2, T max, median (range), Schedule 2/1 dose level 3b, n = 8; drug alone (day 1 of cycle 1)
quantity: Tmax (min)

chem smiles	unit string	assay value
CC(=O)O[C@@]12CO[C@@H]1C[C@H](O)[C@@]1(C)C(=O)[C@H](O)C3=C(C)[C@@H](OC(=O)[C@H](O)[C@@H](NC(=O)OC(C)(C)C)c4ccccc4)C[C@@](O)([C@@H](OC(=O)c4ccccc4)[C@H]21)C3(C)C	min	36

---

experiment description: Plasma pharmacokinetics of docetaxel
Type: in vivo, human
conditions: human, plasma, intravenous, 60 mg/m^2

chem smiles	half-life, h
CC(=O)O[C@@]12CO[C@@H]1C[C@H](O)[C@@]1(C)C(=O)[C@H](O)C3=C(C)[C@@H](OC(=O)[C@H](O)[C@@H](NC(=O)OC(C)(C)C)c4ccccc4)C[C@@](O)([C@@H](OC(=O)c4ccccc4)[C@H]21)C3(C)C	19.6

---

experiment description: Plasma pharmacokinetics of docetaxel
Format: in vivo, human
conditions: human, plasma, intravenous, 75 mg/m^2, AUCinf, mean (SD), Schedule 2/1 dose level 3b, n = 8; drug alone (day 1 of cycle 1)
quantity: AUC(0-inf) (ng·h/mL)

compound	unit string	assay value
CC(=O)O[C@@]12CO[C@@H]1C[C@H](O)[C@@]1(C)C(=O)[C@H](O)C3=C(C)[C@@H](OC(=O)[C@H](O)[C@@H](NC(=O)OC(C)(C)C)c4ccccc4)C[C@@](O)([C@@H](OC(=O)c4ccccc4)[C@H]21)C3(C)C [docetaxel, Docetaxel]	ng·h/mL	2960
